study.target: human sPLA2 (Homo sapiens, UniProt P14555)
Sequence (P14555 21-144): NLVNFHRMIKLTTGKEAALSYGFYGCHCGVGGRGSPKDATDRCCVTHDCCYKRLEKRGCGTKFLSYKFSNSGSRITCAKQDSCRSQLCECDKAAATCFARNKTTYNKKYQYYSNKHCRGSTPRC
pIC50: −log10 of the molar value.
Measured pIC50 of individual entries

# compound, pIC50
measured = [
    ("CCc1c(C(=O)C(N)=O)c2c(OCC(=O)O)cc(C(=O)OC)cc2n1Cc1ccccc1 [compound 10]", 8.77),
    ("CCc1c(C(=O)C(N)=O)c2c(OCC(=O)O)cc(C(=O)O)cc2n1Cc1ccccc1 [Compound 11]", 7.36),
]

* * *

protocol: Evaluation of solubility in water
Format: physicochemical
condition.details: thermodynamic from solid; Na salt: monosodium salt of 10 and 21, disodium salt (20) of 11; water added dropwise by 10 µl; corrected for mg in 1 ml at 23°C

# compound, solubility
measured = [
    ("CCc1c(C(=O)C(N)=O)c2c(OCC(=O)O)cccc2n1Cc1ccccc1 [Compound 21, reference compound]", "1.4 mg/mL"),
    ("CCc1c(C(=O)C(N)=O)c2c(OCC(=O)O)cc(C(=O)OC)cc2n1Cc1ccccc1", "68 mg/mL"),
    ("CCc1c(C(=O)C(N)=O)c2c(OCC(=O)O)cc(C(=O)O)cc2n1Cc1ccccc1", "228 mg/mL"),
]
